- target.system: purified catalytic domain of recombinant human TACE (rhTACEc) (Homo sapiens, UniProt P78536, N452Q/S266A)
- Construct: 6xHis (C); made in house; host or cells: baculovirus/Hi5 insect cells
- Sequence (P78536 215-477 S266A/N452Q): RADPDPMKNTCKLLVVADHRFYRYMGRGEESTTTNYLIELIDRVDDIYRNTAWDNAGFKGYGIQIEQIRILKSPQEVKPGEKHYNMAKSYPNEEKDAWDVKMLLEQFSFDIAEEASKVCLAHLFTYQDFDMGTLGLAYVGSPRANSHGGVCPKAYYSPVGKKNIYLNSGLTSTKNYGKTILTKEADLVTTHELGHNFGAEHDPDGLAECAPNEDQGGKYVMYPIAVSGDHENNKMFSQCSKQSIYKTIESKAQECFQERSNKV
- test.summary: TACE kinetic assay: cleavage of internally quenched peptide substrate TNF-FRET 2 (Ki)
- Format: biochemical
- stated.conditions: TNF-FRET 2 substrate, read-out: Ki
measurement.name: Ki (nM)
Numbers only, in nM.

Reference set (10 entries):
- COc1ccc2c(c1)C(=O)N(C[C@@]1(c3cc4c(N5CCOCC5)nccc4o3)NC(=O)NC1=O)C2 [Compound 2281]: 0.458
- COc1ccc2c(c1)C(=O)N(C[C@@]1(c3cc4nc(N5C(=O)CC[C@@H]5CO)ccc4o3)NC(=O)NC1=O)C2 [Compound 2157]: 0.731
- COc1ccc2c(c1)C(=O)N(C[C@@]1(c3cc4ccc(C(=O)NCC5CCN(C)CC5)cc4o3)NC(=O)NC1=O)C2 [Compound 2411]: 1.14
- COc1ccc2c(c1)C(=O)N(C[C@@]1(c3cc4nc(C(=O)NCCN(C)C)ccc4o3)NC(=O)NC1=O)C2 [Compound 2466]: 0.867
- COc1ccc2c(c1)C(=O)N(C[C@@]1(c3cc4cc(-c5c(OC(C)C)noc5C)cnc4o3)NC(=O)NC1=O)C2 [Compound 501]: 0.844
- COc1ccc2c(c1F)C(=O)N(C[C@@]1(c3cc4cncnc4o3)NC(=O)NC1=O)C2 [Compound 303]: 1.57
- CCN1CCCN(c2ccc3oc([C@]4(CN5Cc6ccc(OC)c(F)c6C5=O)NC(=O)NC4=O)cc3n2)CC1 [Compound 1727]: 0.048
- COc1ccc2c(c1)C(=O)N(C[C@@]1(c3cc4cc(C5(C)NC(=O)NC5=O)cc(C)c4o3)NC(=O)NC1=O)C2 (stereo partly shown) [Compound 2211]: 0.216
- COc1ccc2c(c1)C(=O)N(C[C@@]1(c3cc4c(o3)CCNC4)NC(=O)NC1=O)C2 [Compound 2262]: 6.54
- COc1ccc2c(c1F)C(=O)N(C[C@@]1(c3cc4nc(-c5ccc(N)nc5)ccc4o3)NC(=O)NC1=O)C2 [Compound 1716]: 0.48

Please give Ki for each item listed below.
1. COc1ccc2c(c1)C(=O)N(C[C@@]1(c3cc4nc(-c5ccc(C#N)nc5)ccc4o3)NC(=O)NC1=O)C2 [Compound 2472]
2. COc1ccc2c(c1)C(=O)N(C[C@@]1(c3cc4cc(C5(C)NC(=O)NC5=O)c(C)cc4o3)NC(=O)NC1=O)C2 (stereo partly shown) [Compound 2207]
3. COc1ccc2c(c1)C(=O)N(C[C@@]1(c3cc4cnc(-c5cccnc5)cc4o3)NC(=O)NC1=O)C2 [Compound 2232]

0.745
0.813
0.538
